# Test system: Chordin-like protein 2 (CHRDL2)
# Assay summary: CHRDL2 small-molecule binders, primary screen, biochemical, small-molecule microarray, 635 nm fluorescence (AID 1126);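 note: printed compound slides probed with Chrdl2 protein at 4 µg/mL for 1 h at 4 C; score merges 667 nm emission intensity with signal to noise over three replicate slides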
# Measurement setup: small-molecule microarray binding, fluorescence 635 nm; higher = more signal
Measured property: composite z-score
Answers are plain numbers.

Observe how each entry below is paired with its result.
O=C(C=Cc1ccc2c(c1)OCO2)c1ccc(F)cc1
1.31
COC(=O)[C@H]1[C@@H](O)[C@@]2(O)c3ccccc3O[C@@]2(c2ccccc2)[C@@H]1c1ccccc1
0.14
COC(=O)[C@@H]1CC[C@H](C)[C@@H](c2ccc(C)cc2)N1C(=O)c1ccc(C=NO[C@H](C)c2cn([C@H](CO)Cc3ccccc3)nn2)cc1
0.684
CC(CCN1CCc2nc(-c3ccccc3)c(-c3ccccc3)cc2C1)=NOC[C@@H](O)COCc1ccco1
1.03
CC(C)CON=C1C[C@@H](O)[C@@H](O)[C@@H]2[C@@H]3C(=O)N(C4CCCCC4)C(=O)[C@@H]3CC[C@H]12
0.25
COc1ccc(O[C@H]2C=C[C@@H](c3ccccc3)O[C@@H]2CON=C(C)CCN2CCc3nc(-c4ccccc4)c(-c4ccccc4)cc3C2)cc1
-0.163
O=C1C[C@@H](O)[C@@H](O)[C@@H]2[C@@H]3C(=O)N(C[C@@H]4CCCO4)C(=O)[C@@H]3CC[C@@H]12
0.348
CCOC(=O)[C@H](CC(C)C)NC(=O)CCC1CC(OC(=O)NCCc2ccc(F)cc2)CC2(CCCC(COC(=O)NCCc3ccc(Cl)cc3)O2)O1 (stereo not given in full)
0.446

Fill in composite z-score for each of the 7 molecules listed.
1. COc1cccc([C@H]2Oc3ccc(OC)cc3C(=NO[C@@H](C)c3cn([C@H](CO)Cc4ccccc4)nn3)[C@@H]2O)c1
2. COc1ccc(O[C@H]2C=C[C@@H](c3ccccc3)O[C@@H]2CON=C2[C@H]3CCn4c(=O)n(-c5ccccc5)c(=O)n4[C@H]3[C@H](O)[C@@H]3O[C@H]23)cc1
3. CC(C)=CCCC(C)=CCON=C1C[C@@H](O)[C@@H](O)[C@@H]2[C@@H]3C(=O)N(C(C)(C)C)C(=O)[C@@H]3CC[C@@H]12
4. CCOC(=O)[C@H](Cc1ccccc1)NC(=O)CCC1CC(OC(=O)NCc2cccc3ccccc23)CC2(CCCC(COC(=O)NCCC(C)C)O2)O1 (stereo not given in full)
5. CCOC(=O)NN=C1C[C@@H](O)[C@@H](O)[C@@H]2[C@@H]3C(=O)N(Cc4ccc5c(c4)OCO5)C(=O)[C@@H]3CC[C@H]12
6. CO[C@H]1COC(=O)CC=C[C@H](C)[C@@H](OC)COC(=O)[C@@H](C)NC(=O)CC=C[C@@H]1C
7. Cc1ccc(S(=O)(=O)NC(CCc2ccccc2)CC(=O)C(C)(C)C)cc1 (stereo not given)

Result:
-0.54
0.276
0.129
-0.0587
-0.121
1.47
0.686

====

# Assayed target: Concanavalin-A (Canavalia ensiformis) (UniProt P02866)
# Sequence (P02866 whole entry, looked up): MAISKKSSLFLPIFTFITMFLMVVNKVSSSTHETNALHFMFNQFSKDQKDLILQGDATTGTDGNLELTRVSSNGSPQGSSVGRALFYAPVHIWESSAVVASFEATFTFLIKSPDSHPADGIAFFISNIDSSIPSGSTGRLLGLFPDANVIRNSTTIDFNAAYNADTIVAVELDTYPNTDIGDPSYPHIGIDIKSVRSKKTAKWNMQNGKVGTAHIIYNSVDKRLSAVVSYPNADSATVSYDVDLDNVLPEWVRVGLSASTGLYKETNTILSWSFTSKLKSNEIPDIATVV
# Assay summary: ConA small-molecule binders, primary screen, artefact control for SMM control protein annotation, biochemical, small-molecule microarray, Alexa647 label, 635 nm (AID 1127);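 note: z combines 667 nm emission intensity with signal-to-noise across three replicate slides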
# Measurement setup: ConA-A647 binding fluorescence, higher = more signal
Consider the following compounds; for each one, report its composite z-score.
One number for each entry.

COC(=O)CC=C[C@@H](C)[C@@H](C=NO[C@@H]1O[C@H](COC(C)=O)[C@@H](OC(C)=O)[C@H](OC(C)=O)[C@H]1OC(C)=O)NS(=O)(=O)c1ccc(C)cc1
-0.909
CC(CCN1CCCCc2nc(C)c(C)cc21)=NOC[C@@H](O)COCc1ccco1
-1.26
CC(C)CON=C1C[C@@H](O)[C@@H](O)[C@@H]2[C@@H]3C(=O)N(Cc4ccc5c(c4)OCO5)C(=O)[C@@H]3CC[C@H]12
0.957
CC(C)CON=C1C[C@@H](O)[C@@H](O)[C@@H]2[C@@H]3C(=O)N(C4CCCCC4)C(=O)[C@@H]3CC[C@@H]12
1.01
CCOC(=O)[C@H](CC(C)C)NC(=O)CCC1CC(OC(=O)NCCc2ccc(F)cc2)CC2(CCCC(COC(=O)NCC3CCCCC3)O2)O1 (some centres not stated)
1.07
COCOc1ccc(Br)cc1C(=O)[C@@H]1O[C@H]1c1cccc(OC)c1
-1.26

Ask: Give the measured composite z-score for COC(=O)CC=C[C@@H](C)[C@@H](C=NOC(C)CN1CCCc2nc(C)c(C)cc21)OC (some centres not stated)
Result: 0.458

====

# Assay summary: CREB reporter modulators under forskolin, primary screen, cell-based, PC12, CRE-LacZ reporter, forskolin-stimulated (AID 1146);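 note: PC12 cells with 6xCRE LacZ reporter stimulated by forskolin 10 µM; beta-galactosidase reporter signal reflecting CREB driven transcription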
# Measurement setup: luminescence, 4.5 h, higher = more signal, called active from +8 up or from −8 down
Measured property: z-score
One number for each entry.

Observe how each entry below is paired with its result.
CCOC(=O)[C@H](CC(C)C)NC(=O)CCC1CC(OC(=O)NCCc2ccc(F)cc2)CC2(CCCC(COC(=O)NCCOc3ccccc3)O2)O1 (stereo not given in full)
0.127
CC(C)=NO[C@H](C)c1cn([C@H](CO)Cc2ccccc2)nn1
0.112
O=C1[C@H]2[C@H]3[C@H](O)[C@H](O)CC(=NOCc4ccccc4)[C@H]3CC[C@H]2C(=O)N1Cc1ccc2c(c1)OCO2
-0.915
COc1cc(O)c(C(=O)C=Cc2ccc3c(c2)OCO3)c(OC)c1
0.528
COC(=O)CC=C[C@@H](C)[C@@H](C=NO[C@@H](C)c1cn([C@H](CO)Cc2ccccc2)nn1)NS(=O)(=O)c1ccc(C)cc1
-0.0697

Fill in z-score for each of the 4 molecules listed.
1. C=CC1=C[C@H](O)[C@@H]2O[C@@H]2C12OCCCO2
2. CC(C)=CCCC(C)=CCON=C1C[C@@H](O)[C@@H](O)[C@@H]2[C@@H]3C(=O)N(c4ccc(F)cc4F)C(=O)[C@@H]3CC[C@H]12
3. C[C@H]1CC[C@H]2C(=O)O[C@H](COc3ccc(C(C)(C)C)cc3)CN2[C@@H]1c1ccc(Br)cc1
4. CCN1C(=O)[C@H]2[C@H]3[C@H](O)[C@H](O)CC(=O)[C@H]3CC[C@H]2C1=O

Result:
1: 0.197; 2: -0.358; 3: -0.466; 4: -0.733

====

Consider the following compounds; for each one, report its z-score.
# Assay summary: FRG1 promoter luciferase signal modulators, primary screen, FRG1 inhibition for FSHD, cell-based, C2C12 myotubes, firefly/Renilla luciferase, luminescence (AID 1084)
# Measurement setup: higher = more signal, called active from +8 up or from −8 down
Answers are plain numbers.

C[C@@H]1CC[C@H]2C(=O)O[C@@H](Cc3ccccc3)CN2[C@H]1c1ccc(Br)cc1
-0.205
CO[C@@H]1COC(=O)[C@@H]2CCCN2C(=O)[C@@H](C)COC(=O)CC=C[C@H]1C
0.719
CON=C[C@@H](NS(=O)(=O)c1ccc(C)cc1)[C@H](C)C=CCC(=O)OC
0.494

Here is another compound to look at.
Ask: Give the measured z-score for COC(=O)[C@@H]1CC[C@H](C)[C@@H](c2ccc(C)cc2)N1C(=O)c1ccc(C=NO[C@H](C)c2cn([C@H](CO)Cc3ccccc3)nn2)cc1
Result: 0.0599

====

# Assay summary: yeast growth modulation, basal conditions, primary screen, YJM789 clinical isolate, OD600, 24 h (AID 1089);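 note: growth of clinical yeast isolate S. cerevisiae YJM 789 seeded 1000 cells per well; test concentration not given here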
# Measurement setup: S. cerevisiae YJM789 growth, higher = more signal, called active from +8 up or from −8 down
Measured property: z-score
Numbers only.

Observe how each entry below is paired with its result.
CC(C)=CCCC(C)=CCON=C1C[C@@H](O)[C@@H](O)[C@@H]2[C@@H]3C(=O)N(C(C)(C)C)C(=O)[C@@H]3CC[C@@H]12
0.286
CCOC(=O)NN=C1C[C@@H](O)[C@@H](O)[C@@H]2[C@@H]3C(=O)N(C(C)(C)C)C(=O)[C@@H]3CC[C@H]12
0.438
C=CC[C@@H]1C=C[C@H](ON=C(C)CCC(=O)OC[C@H]2O[C@H](C#Cc3ccccc3)C=C[C@@H]2Oc2ccc(C)cc2)[C@@H](CO)O1
1.28

Fill in z-score for each of the 2 compounds listed.
1. CCCNC(=O)OC[C@H]1O[C@H](CCON=C(C)CCC(=O)OC[C@H]2O[C@H](c3ccccc3)C=C[C@@H]2Oc2ccc(OC)cc2)C=C[C@@H]1Oc1ccc(OC)cc1
2. CC(C)(C)N1C(=O)[C@H]2[C@H]3[C@H](O)[C@H](O)CC(=O)[C@H]3CC[C@H]2C1=O

Result:
1: -1.66; 2: 0.445

Ask: Give the measured z-score for COc1ccc(O[C@H]2C=C[C@@H](c3ccccc3)O[C@@H]2COC(=O)CCC(C)=NO[C@@H]2O[C@H](COC(C)=O)[C@@H](OC(C)=O)[C@H](OC(C)=O)[C@H]2OC(C)=O)cc1
Result: 1.2

Where do the numbers come from? From PubChem BioAssay.
